Values compiled from patent US20130136748A1.

Each item that follows carries a reported IC50, HRG1-β1 induced pAkt, MCF-7.
molecular target: hHER3 full length (human, UniProt P21860 20-1342); assay: cell-based or functional assay
Please give a number only; it is taken to be in M.

A selection of reference data follows.
# Binder, IC50, HRG1-β1 induced pAkt, MCF-7 (M)
records = [
    ("21F06 (VHH, c-myc, His6-tagged form as expressed; also called 21F6; HER3MS21F06) VHH: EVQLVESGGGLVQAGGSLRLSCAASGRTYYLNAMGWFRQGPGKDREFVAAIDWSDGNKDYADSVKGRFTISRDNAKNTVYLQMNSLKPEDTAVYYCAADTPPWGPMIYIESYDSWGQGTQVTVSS", "2.31e-08"),
    ("21B02 (VHH) VHH: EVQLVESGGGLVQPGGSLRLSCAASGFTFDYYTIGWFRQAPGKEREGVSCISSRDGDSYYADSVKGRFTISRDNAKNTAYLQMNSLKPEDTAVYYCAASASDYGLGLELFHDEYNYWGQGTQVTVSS", "6.9e-08"),
]

Let's switch to this binder now.
Problem: Could you share which IC50, HRG1-β1 induced pAkt, MCF-7 value was measured for 34C07 (VHH, c-myc, His6-tagged form as expressed; also called 34C7; HER3MS34C07) VHH: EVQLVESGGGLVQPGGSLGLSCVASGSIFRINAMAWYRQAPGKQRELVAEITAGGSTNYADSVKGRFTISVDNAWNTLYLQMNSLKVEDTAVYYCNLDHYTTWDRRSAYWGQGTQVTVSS ?
Result: 4.99e-08
